System: Rattus norvegicus
Experiment: Tested for the effect on 8-OH-DPAT-induced lower lip retraction (LLR) in rat at dosage of 16 mg/kg
Assay type: functional
LLR score reference
Number only, please.

// below: answered compounds
MOLECULE SMILES	MEASURED VALUE
COc1ccccc1N1CCN(CCCn2nnc3ccccc32)CC1	0.9
COc1ccccc1N1CCN(CCCCn2nnc3ccccc32)CC1	2.4
COc1ccccc1N1CCN(CCCCn2nc3ccccc3n2)CC1	2.4

Kindly review the next compound as well.
Entry `COc1ccccc1N1CCN(CCCn2nc3ccccc3n2)CC1` has what LLR score? 2.2

====

Molecular target: Serotonin 2 (5-HT2) receptor (Rattus norvegicus, UniProt P30994+P08909+P14842)
Assay: Tested in vitro for receptor binding affinity against 5-hydroxytryptamine 2 receptor using radioligand [3H]ketanserin
Assay type: protein assay
Ki reference
Param answer (str): number followed by unit.

// below: answered compounds
MOLECULE SMILES	MEASURED VALUE
COc1ccccc1N1CCN(CCCn2nnc3ccccc32)CC1	1040 nM
COc1ccccc1N1CCN(CCCCn2nc3ccccc3n2)CC1	214 nM
CCCN1CCN(c2ccccc2OC)CC1	3290 nM
COc1ccccc1N1CCN(CCn2nc3ccccc3n2)CC1	1760 nM
COc1ccccc1N1CCN(CCCn2nc3ccccc3n2)CC1	1580 nM

Entry `CCN1CCN(c2ccccc2OC)CC1` has what Ki? 3120 nM

Query `COc1ccccc1N1CCN(CCCCn2nnc3ccccc32)CC1` next 160 nM

Query `COc1ccccc1N1CCN(CCn2nnc3ccccc32)CC1` next 1620 nM

Query `CCCCN1CCN(c2ccccc2OC)CC1` next 2280 nM

====

Species on record: Rattus norvegicus
Experiment: Selectivity is the ratio between Ki values of 5-HT2 and 5-HT1A
Selectivity reference

// below: answered compounds
MOLECULE SMILES	Selectivity
COc1ccccc1N1CCN(CCn2nnc3ccccc32)CC1	39
COc1ccccc1N1CCN(CCCCn2nnc3ccccc32)CC1	9.4
COc1ccccc1N1CCN(CCCCn2nc3ccccc3n2)CC1	54

Entry `COc1ccccc1N1CCN(CCCn2nc3ccccc3n2)CC1` has what Selectivity? 66

Query `CCCN1CCN(c2ccccc2OC)CC1` next 13

Query `COc1ccccc1N1CCN(CCn2nc3ccccc3n2)CC1` next 43

Query `CCCCN1CCN(c2ccccc2OC)CC1` next 40

Query `CCN1CCN(c2ccccc2OC)CC1` next 15

Query `COc1ccccc1N1CCN(CCCn2nnc3ccccc32)CC1` next 69

====

Target: UniProtKB P19327
Sequence (P19327 whole entry): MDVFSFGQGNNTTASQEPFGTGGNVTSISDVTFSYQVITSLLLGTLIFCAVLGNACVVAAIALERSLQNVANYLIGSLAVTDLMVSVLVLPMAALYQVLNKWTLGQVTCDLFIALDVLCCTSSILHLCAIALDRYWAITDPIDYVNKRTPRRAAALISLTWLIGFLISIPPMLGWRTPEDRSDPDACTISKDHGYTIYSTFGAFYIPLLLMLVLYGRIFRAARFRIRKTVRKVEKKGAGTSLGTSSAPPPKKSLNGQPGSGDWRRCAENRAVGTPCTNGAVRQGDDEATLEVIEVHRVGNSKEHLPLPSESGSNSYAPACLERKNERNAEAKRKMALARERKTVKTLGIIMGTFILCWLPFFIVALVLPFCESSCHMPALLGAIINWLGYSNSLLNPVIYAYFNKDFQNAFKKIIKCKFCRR
OBSERVATION TYPE: Ki (nM)
Kindly answer with a numeric value in nM, unit omitted.

// below: answered molecules
MOLECULE SMILES	UNITS TEXT	Ki
CCN1CCN(c2ccccc2OC)CC1	nM	203
COc1ccccc1N1CCN(CCn2nnc3ccccc32)CC1	nM	42
CCCCN1CCN(c2ccccc2OC)CC1	nM	57

Kindly review the next molecule as well.
Entry `COc1ccccc1N1CCN(CCCn2nnc3ccccc32)CC1` has what Ki? 15

Taken from ChEMBL document CHEMBL1127439.
